Experiment: Phase 1 pharmacokinetic study of inhaled cromolyn, plasma
Format: in vivo, human
Settings: human, inhaled, 17.1 mg, Min, read-out: AUC0-inf
ASSAY READOUT: AUC(0-inf) (ng·h/mL)
Just the number please, in ng·h/mL, no unit attached.

Query: Given the compound `O=C(O)c1cc(=O)c2c(OCC(O)COc3cccc4oc(C(=O)O)cc(=O)c34)cccc2o1` , what is its reported AUC(0-inf)?
Reply: 93.3

* * *

Experiment: Phase 1 pharmacokinetic study of inhaled cromolyn, plasma
Type: in vivo, human
Conditions: human, inhaled or intranasal, double dose (34.2 mg) inhalation, range, read-out: apparent t1/2 range
ASSAY READOUT: half-life

Query: Given the molecule `O=C(O)c1cc(=O)c2c(OCC(O)COc3cccc4oc(C(=O)O)cc(=O)c34)cccc2o1` , what is its reported half-life?
Reply: 0.7 to 3.8 h

* * *

Assay: Phase 1 pharmacokinetic study of inhaled cromolyn, plasma
Format: in vivo, human
Settings: human, inhaled or intranasal, 17.1 mg, 17.1 mg single inhaled dose, mean, read-out: Cmax
ASSAY READOUT: Cmax (ng/mL)
Just the number please, in ng/mL, no unit attached.

Query: Given the compound `O=C(O)c1cc(=O)c2c(OCC(O)COc3cccc4oc(C(=O)O)cc(=O)c34)cccc2o1` , what is its reported Cmax?
Reply: 46.7

* * *

Test: Phase 1 pharmacokinetic study of inhaled cromolyn, plasma
Format: in vivo, human
Conditions: human, inhaled or intranasal, 34.2 mg, 34.2 mg double inhaled dose, mean, read-out: Cmax
ASSAY READOUT: Cmax (ng/mL)
Just the number please, in ng/mL, no unit attached.

Query: Given the compound O=C(O)c1cc(=O)c2c(OCC(O)COc3cccc4oc(C(=O)O)cc(=O)c34)cccc2o1 [cromolyn] , what is its reported Cmax?
Reply: 96.8

* * *

Experiment: Phase 1 pharmacokinetic study of inhaled cromolyn, plasma
Type: in vivo, human
Conditions: human, inhaled, 17.1 mg, Min
ASSAY READOUT: Tmax (min)
Just the number please, in min, no unit attached.

Query: Given the compound O=C(O)c1cc(=O)c2c(OCC(O)COc3cccc4oc(C(=O)O)cc(=O)c34)cccc2o1 [cromolyn] , what is its reported Tmax?
Reply: 6

* * *

Experiment: Phase 1 pharmacokinetic study of inhaled cromolyn, plasma
Assay type: in vivo, human
Settings: human, inhaled, 17.1 mg, median, read-out: Cmax
ASSAY READOUT: Cmax (ng/mL)
Just the number please, in ng/mL, no unit attached.

Query: Given the compound `O=C(O)c1cc(=O)c2c(OCC(O)COc3cccc4oc(C(=O)O)cc(=O)c34)cccc2o1` , what is its reported Cmax?
Reply: 36.2

* * *

Test: Phase 1 pharmacokinetic study of inhaled cromolyn, plasma
Format: in vivo, human
Conditions: human, inhaled or intranasal, 17.1 mg, 17.1 mg single inhaled dose, mean, read-out: AUC0-inf
ASSAY READOUT: AUC(0-inf) (ng·h/mL)
Just the number please, in ng·h/mL, no unit attached.

Query: Given the compound O=C(O)c1cc(=O)c2c(OCC(O)COc3cccc4oc(C(=O)O)cc(=O)c34)cccc2o1 [cromolyn] , what is its reported AUC(0-inf)?
Reply: 196

* * *

Assay: Phase 1 pharmacokinetic study of inhaled cromolyn, plasma
Type: in vivo, human
Settings: human, inhaled or intranasal, 34.2 mg, double (34.2 mg) dose inhalation, range, read-out: AUC0-inf range
ASSAY READOUT: AUC(0-inf)

Query: Given the compound `O=C(O)c1cc(=O)c2c(OCC(O)COc3cccc4oc(C(=O)O)cc(=O)c34)cccc2o1` , what is its reported AUC(0-inf)?
Reply: 155 to 443 ng·h/mL

All values here come from patent US20230248646A1.
